- test_target: recombinant cGAS (aa147-522) (Homo sapiens, UniProt Q8N884)
- Construct: recombinant cGAS (aa147-522); His6-SUMO (N, cleaved yes)
- Sequence (Q8N884 147-522): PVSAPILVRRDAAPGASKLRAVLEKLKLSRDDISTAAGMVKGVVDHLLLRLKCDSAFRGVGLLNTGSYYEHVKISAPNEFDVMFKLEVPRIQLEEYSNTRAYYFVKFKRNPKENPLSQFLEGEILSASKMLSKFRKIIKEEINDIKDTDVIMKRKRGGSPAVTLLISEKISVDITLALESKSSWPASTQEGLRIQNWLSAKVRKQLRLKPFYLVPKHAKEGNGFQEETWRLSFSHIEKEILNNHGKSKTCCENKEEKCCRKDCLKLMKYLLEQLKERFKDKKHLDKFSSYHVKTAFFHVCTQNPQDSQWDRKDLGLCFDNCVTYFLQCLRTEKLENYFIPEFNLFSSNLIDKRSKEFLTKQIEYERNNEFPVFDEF
- protocol_description: In vitro assay for inhibition of cGAS activity (ATP consumption, Kinase Glo)
- condition_parameters: 37° C. 20 minutes, read-out: Activity (Inhibition of cGAS enzyme activity in vitro, IC50)
pIC50: −log10 of the molar value.
Give pIC50 for every item shown.

CN1C(=O)S/C(=C\c2cc(OCc3cnc(N)nc3)c(O)cc2Br)C1=O [Ex147] ... ≥ 6.30
COc1cc(/C=C2\Sc3nccnc3C2=O)c(Br)cc1O [Ex50] ... 5.00 to 6.30

In the following, a different compound is considered.
Exercise: Quick check: pIC50 of CC(Oc1cc(/C=C2\SC(=O)N(C)C2=O)c(Br)c(F)c1O)c1cnc(N)nc1C(F)(F)F (stereo not drawn) [ExA7] ?
Key: ≥ 6.30

###

- test_target: recombinant cGAS (aa147-522) (Homo sapiens, UniProt Q8N884)
- Construct: recombinant cGAS (aa147-522); His6-SUMO (N, cleaved yes)
- protocol_description: In vitro assay for inhibition of cGAS activity (ATP consumption, Kinase Glo)
- condition_parameters: 37° C. 20 minutes, read-out: Activity (Inhibition of cGAS enzyme activity in vitro, IC50)
readout: IC50

Known results for compounds:
CN1C(=O)S/C(=C\c2cc(OCc3cncc(NC(=O)c4ccncc4)c3)c(O)cc2Br)C1=O ... ≥ 10 µM
Cc1ncc(C(C)Oc2cc(/C=C3\SC(=O)N(C)C3=O)c(Br)cc2O)cn1 (centres unmarked) ... 0.5 to 10 µM

Quick one: give me IC50 for each item below, same order please.
1. CN1C(=O)S/C(=C\c2cc(OC(F)(F)F)c(O)cc2Br)C1=O
2. CN1C(=O)S/C(=C\c2cc(OCc3cnc(Cl)nc3N)c(O)c(F)c2Br)C1=O
3. COc1cc(/C=C2\SC(=O)N(C)C2=O)c(Br)cc1NS(=O)(=O)c1ccccn1

Key:
1: 0.5 to 10 µM; 2: ≤ 0.5 µM; 3: ≥ 10 µM

Cited source: patent US12065416B2
